Assay read-out IC50; system under study: hCB1 receptor (Homo sapiens, UniProt P21554).
Sequence (P21554 whole entry): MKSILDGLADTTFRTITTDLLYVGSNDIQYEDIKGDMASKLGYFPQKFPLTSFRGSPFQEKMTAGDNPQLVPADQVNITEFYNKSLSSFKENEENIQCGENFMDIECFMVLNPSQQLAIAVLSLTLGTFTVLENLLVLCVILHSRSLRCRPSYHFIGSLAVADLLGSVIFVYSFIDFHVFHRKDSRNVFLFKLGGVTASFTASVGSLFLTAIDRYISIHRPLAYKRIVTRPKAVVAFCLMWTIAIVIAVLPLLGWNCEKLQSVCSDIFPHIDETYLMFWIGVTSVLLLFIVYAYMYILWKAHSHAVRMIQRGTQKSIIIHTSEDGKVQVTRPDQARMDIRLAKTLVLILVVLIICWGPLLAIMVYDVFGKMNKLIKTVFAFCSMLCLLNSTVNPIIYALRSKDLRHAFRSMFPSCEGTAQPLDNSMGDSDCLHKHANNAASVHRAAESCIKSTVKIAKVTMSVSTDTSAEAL
Provide the reading as a plain figure in nM.

As a guide, the following entries are already answered.
COC(=O)[C@@H](NC(=O)c1cn(CC2CCCCC2)c2c(Cl)cccc12)C(C)(C)C [7-Chloro-MDMB-CHMICA]: 28.8
COC(=O)[C@@H](NC(=O)c1cn(CC2CCCCC2)c2cc(Cl)ccc12)C(C)(C)C [6-Chloro-MDMB-CHMICA]: 31.6
COC(=O)[C@@H](NC(=O)c1cn(CC2CCCCC2)c2cccc(Cl)c12)C(C)(C)C [4-Chloro-MDMB-CHMICA]: 268
CCCCCn1cc(C(=O)c2cccc3ccccc23)c2ccccc21 [JWH-018, reference compound]: 103
COC(=O)[C@@H](NC(=O)c1c(Cl)n(CC2CCCCC2)c2ccccc12)C(C)(C)C [2-Chloro-MDMB-CHMICA]: 23.6

Okay, next one:
Query: Write down the reported IC50 of COC(=O)[C@@H](NC(=O)c1cn(CC2CCCCC2)c2ccc(Cl)cc12)C(C)(C)C [5-Chloro-MDMB-CHMICA] , test system: hCB1 receptor (Homo sapiens, UniProt P21554).
Response: 402
